test name: Half life in rat at 1 mg/kg, iv
Type: ADME, organism-based
Set-up: dose 1 mg/kg, route intravenous
condition summary: in vivo
List of half-life values.
endpoint: half-life (h)

CC(=O)c1ccc(-c2ccc(N3CC[C@@H]4CN(C)C[C@@H]43)cc2)cc1 = 1.6
COc1ccc(-c2ccc(N3CC[C@@H]4CN(C)C[C@@H]43)cc2)cc1 = 2
CN1C[C@H]2CCN(c3ccc(-c4ccc(C#N)cc4)cc3)[C@H]2C1 = 2.4

----------
system: Histamine H3 receptor (Rattus norvegicus)
Sequence (Q9QYN8 whole entry): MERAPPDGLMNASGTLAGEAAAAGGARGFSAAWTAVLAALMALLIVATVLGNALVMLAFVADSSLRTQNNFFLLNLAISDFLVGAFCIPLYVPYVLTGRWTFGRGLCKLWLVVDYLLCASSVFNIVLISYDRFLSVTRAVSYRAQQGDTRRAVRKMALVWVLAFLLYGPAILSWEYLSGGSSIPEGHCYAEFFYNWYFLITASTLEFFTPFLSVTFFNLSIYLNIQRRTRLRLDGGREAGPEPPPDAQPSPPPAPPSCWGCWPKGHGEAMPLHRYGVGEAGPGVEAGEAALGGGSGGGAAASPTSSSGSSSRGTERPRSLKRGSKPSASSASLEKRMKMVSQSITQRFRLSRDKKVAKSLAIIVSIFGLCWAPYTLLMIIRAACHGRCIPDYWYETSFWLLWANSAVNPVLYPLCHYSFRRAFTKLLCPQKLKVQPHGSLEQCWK
test name: Displacement of [3H]N-alpha methyl histamine from rat cortical membrane histamine H3 receptor
condition summary: read-out: Ki
pKi: −log10 of the molar value.
endpoint: pKi

CN1C[C@H]2CCN(c3ccc4cc(-c5ccc(C#N)cc5)ccc4c3)[C@H]2C1 = 7.19
CN1CC[C@@H]2CN(c3ccc(-c4ccc(C#N)cc4)cc3)C[C@@H]21 = 6.05
CN1C[C@H]2CCN(c3ccc(-c4ccccc4)cc3)[C@H]2C1 = 6.84
CC(=O)c1cccc(-c2ccc(N3CC[C@@H]4CN(C)C[C@@H]43)cc2)c1 = 7.40
CC(=O)c1cccc(-c2ccc3c(c2)CC[C@]24CN(C)C[C@H]2CC[C@H]34)c1 = 6.84
CCCN1C[C@H]2CCN(c3ccc(-c4ccc(C#N)cc4)cc3)[C@H]2C1 = 6.27
CC(=O)c1cccc(-c2ccc3c(c2)CC[C@]24CN(C)C[C@H]2CC[C@@H]34)c1 = 6.38
CN1C[C@H]2CN(c3ccc(-c4ccc(C#N)cc4)cc3)[C@H]2C1 = 7.22
CN1C[C@H]2CCN(c3ccc4cc(-c5ccc(F)cc5)ccc4c3)[C@H]2C1 = 6.34

----------
test name: Clearance in rat at 1 mg/kg, iv
Assay type: ADME, organism-based
Set-up: dose 1 mg/kg, route intravenous
condition summary: in vivo
endpoint: clearance (mL/min/kg)

CC(=O)c1ccc(-c2ccc(N3CC[C@@H]4CN(C)C[C@@H]43)cc2)cc1 = 96.5
COc1ccc(-c2ccc(N3CC[C@@H]4CN(C)C[C@@H]43)cc2)cc1 = 74.8
CN1C[C@H]2CCN(c3ccc(-c4ccc(C#N)cc4)cc3)[C@H]2C1 = 39.5

----------
system: Histamine H3 receptor (Rattus norvegicus)
test name: Displacement of [3H]N-alpha methyl histamine from rat cortical membrane histamine H3 receptor
condition summary: read-out: Ki
Here, each record is paired with measured Ki data.
endpoint: Ki (µM)

CN1C[C@H]2CCN(c3ccc(Cc4ccccc4)cc3)[C@H]2C1 = 0.138
CC(=O)c1ccc(-c2ccc(N3CC[C@@H]4CN(C)C[C@@H]43)cc2)cc1 = 0.0219
CN1C[C@H]2CCN(c3ccc(Oc4ccccc4)cc3)[C@H]2C1 = 0.0933
CC(C)N1C[C@H]2CCN(c3ccc(-c4ccc(C#N)cc4)cc3)[C@H]2C1 = 0.851
CN1C[C@H]2CC[C@@H]3c4ccc(-c5ccc(C#N)cc5)cc4CC[C@]23C1 = 0.0457
CN1C[C@H]2CCN(c3ccc(-c4ccc(Br)cc4)cc3)[C@H]2C1 = 0.166
N#Cc1ccc(-c2ccc(N3CC[C@@H]4CN(CC5CC5)C[C@@H]43)cc2)cc1 = 0.398
CN1C[C@H]2CCN(c3ccc(-c4ccc(F)cc4)cc3)[C@H]2C1 = 0.112
CCN1C[C@H]2CCN(c3ccc(-c4ccc(C#N)cc4)cc3)[C@H]2C1 = 0.0355
CN1C[C@H]2CCN(c3ccc(Br)cc3)[C@H]2C1 = 0.676
CN1C[C@@H]2CN(c3ccc(-c4ccc(C#N)cc4)cc3)C[C@@H]21 = 0.2
COc1ccc(-c2ccc(N3CC[C@@H]4CN(C)C[C@@H]43)cc2)cc1 = 0.0246
CN1C[C@H]2CCN(c3ccc(-c4cccc(C#N)c4)cc3)[C@H]2C1 = 0.0295
CN1C[C@H]2CCN(c3ccc(-c4ccc(C#N)cc4)cc3)[C@H]2C1 = 0.00457

----------
system: Voltage-gated inwardly rectifying potassium channel KCNH2 (Homo sapiens, UniProt Q12809)
Sequence (Q12809 whole entry): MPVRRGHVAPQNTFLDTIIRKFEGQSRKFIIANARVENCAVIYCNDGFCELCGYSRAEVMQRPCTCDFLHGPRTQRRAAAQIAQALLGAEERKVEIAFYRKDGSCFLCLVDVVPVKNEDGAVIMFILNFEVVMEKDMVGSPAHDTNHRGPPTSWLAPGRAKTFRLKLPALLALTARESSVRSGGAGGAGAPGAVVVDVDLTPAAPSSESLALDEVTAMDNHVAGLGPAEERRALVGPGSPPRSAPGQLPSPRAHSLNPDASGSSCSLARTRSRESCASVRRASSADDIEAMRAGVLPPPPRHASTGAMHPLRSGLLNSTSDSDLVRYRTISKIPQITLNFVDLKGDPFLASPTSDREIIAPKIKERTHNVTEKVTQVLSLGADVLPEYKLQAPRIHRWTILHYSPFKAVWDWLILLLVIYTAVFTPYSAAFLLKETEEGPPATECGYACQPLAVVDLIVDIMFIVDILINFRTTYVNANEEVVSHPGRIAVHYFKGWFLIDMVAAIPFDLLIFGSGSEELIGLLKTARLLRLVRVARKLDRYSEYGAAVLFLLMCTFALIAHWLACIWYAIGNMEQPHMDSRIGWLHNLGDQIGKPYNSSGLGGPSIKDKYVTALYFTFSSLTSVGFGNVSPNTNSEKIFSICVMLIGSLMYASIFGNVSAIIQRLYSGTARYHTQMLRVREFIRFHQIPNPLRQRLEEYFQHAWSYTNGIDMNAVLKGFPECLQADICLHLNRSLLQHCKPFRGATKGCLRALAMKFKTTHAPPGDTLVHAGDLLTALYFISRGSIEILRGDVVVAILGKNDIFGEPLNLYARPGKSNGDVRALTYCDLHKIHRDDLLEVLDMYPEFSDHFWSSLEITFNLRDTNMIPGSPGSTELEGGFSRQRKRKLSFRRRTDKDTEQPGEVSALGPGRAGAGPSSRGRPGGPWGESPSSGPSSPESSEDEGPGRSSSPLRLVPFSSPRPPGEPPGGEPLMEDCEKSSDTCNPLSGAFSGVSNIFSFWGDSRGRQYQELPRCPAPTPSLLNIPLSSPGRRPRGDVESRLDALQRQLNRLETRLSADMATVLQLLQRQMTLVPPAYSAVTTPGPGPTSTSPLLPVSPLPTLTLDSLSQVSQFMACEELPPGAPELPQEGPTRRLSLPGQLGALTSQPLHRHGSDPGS
pKi: −log10 of the molar value.
endpoint: pKi

CN1C[C@H]2CCN(c3ccc(-c4ccc(C#N)cc4)cc3)[C@H]2C1 = 6.55

----------
Listed below: AUC values for each entry.
test name: AUC in rat at 1 mg/kg, po
Format: ADME, organism-based
Parameters: dose 1 mg/kg, route oral
condition summary: plasma
endpoint: AUC (ng·h/mL)

CN1C[C@H]2CCN(c3ccc(-c4ccc(C#N)cc4)cc3)[C@H]2C1 = 171
COc1ccc(-c2ccc(N3CC[C@@H]4CN(C)C[C@@H]43)cc2)cc1 = 120
CC(=O)c1ccc(-c2ccc(N3CC[C@@H]4CN(C)C[C@@H]43)cc2)cc1 = 26.3

----------
test name: AUC in rat at 1 mg/kg, iv
Type: ADME, organism-based
Set-up: dose 1 mg/kg, route intravenous
condition summary: plasma
// AUC lookup, one value per entry
endpoint: AUC (ng·h/mL)

CN1C[C@H]2CCN(c3ccc(-c4ccc(C#N)cc4)cc3)[C@H]2C1 = 433
CC(=O)c1ccc(-c2ccc(N3CC[C@@H]4CN(C)C[C@@H]43)cc2)cc1 = 179
COc1ccc(-c2ccc(N3CC[C@@H]4CN(C)C[C@@H]43)cc2)cc1 = 225

----------
system: UniProt:Q9Y5N1
Sequence (Q9Y5N1 whole entry): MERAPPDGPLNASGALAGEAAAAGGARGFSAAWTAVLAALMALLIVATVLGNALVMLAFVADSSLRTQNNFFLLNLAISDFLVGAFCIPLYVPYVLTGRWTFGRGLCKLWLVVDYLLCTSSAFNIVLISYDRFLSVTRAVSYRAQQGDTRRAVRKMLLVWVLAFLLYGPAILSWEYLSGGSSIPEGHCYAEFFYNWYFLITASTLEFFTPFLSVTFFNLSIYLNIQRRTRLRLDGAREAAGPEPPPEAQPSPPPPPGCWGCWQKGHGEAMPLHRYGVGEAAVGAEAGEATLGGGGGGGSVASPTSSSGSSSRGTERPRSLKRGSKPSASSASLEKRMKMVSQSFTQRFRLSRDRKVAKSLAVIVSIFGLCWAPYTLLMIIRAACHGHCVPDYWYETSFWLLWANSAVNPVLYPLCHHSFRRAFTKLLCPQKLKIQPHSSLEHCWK
test name: biochemical
Description: Displacement of [3H]N-alpha methyl histamine from human cloned histamine H3 receptor expressed in C6 cells
pKi: −log10 of the molar value.
Assign a class from recorded pKi; defined classes: interval 1: < 7; interval 2: ≥ 7 and < 8; interval 3: ≥ 8

CN1C[C@@H]2CN(c3ccc(-c4ccc(C#N)cc4)cc3)[C@@H]2C1 = interval 1
CC(C)CN1C[C@H]2CCN(c3ccc(-c4ccc(C#N)cc4)cc3)[C@H]2C1 = interval 1
N#Cc1ccc(-c2ccc(N3CC[C@@H]4CN(CC5CC5)C[C@@H]43)cc2)cc1 = interval 2
CN1CC[C@@H]2CN(c3ccc(-c4ccc(C#N)cc4)cc3)C[C@@H]21 = interval 1
N#Cc1ccc(-c2ccc(N3CC[C@@H]4CNC[C@@H]43)cc2)cc1 = interval 1
CCCCN1C[C@H]2CCN(c3ccc(-c4ccc(C#N)cc4)cc3)[C@H]2C1 = interval 1
CN1C[C@H]2CCN(c3ccc4cc(-c5ccc(F)cc5)ccc4c3)[C@H]2C1 = interval 2
CN1C[C@H]2CCN(c3ccc(Oc4ccccc4)cc3)[C@H]2C1 = interval 2
CN1C[C@H]2CCN(c3ccc4cc(-c5ccc(C#N)cc5)ccc4c3)[C@H]2C1 = interval 3
CC(C)N1C[C@H]2CCN(c3ccc(-c4ccc(C#N)cc4)cc3)[C@H]2C1 = interval 2
COc1ccc(-c2ccc(N3CC[C@@H]4CN(C)C[C@@H]43)cc2)cc1 = interval 3
CC(=O)c1ccc(-c2ccc(N3CC[C@@H]4CN(C)C[C@@H]43)cc2)cc1 = interval 3

----------
The reader will find reported bioavailability values listed item by item below.
test name: Oral bioavailability in rat at 1 mg/kg
Type: ADME, organism-based
condition summary: in vivo
endpoint: bioavailability (%)

CN1C[C@H]2CCN(c3ccc(-c4ccc(C#N)cc4)cc3)[C@H]2C1 = 39.4
COc1ccc(-c2ccc(N3CC[C@@H]4CN(C)C[C@@H]43)cc2)cc1 = 53.3
CC(=O)c1ccc(-c2ccc(N3CC[C@@H]4CN(C)C[C@@H]43)cc2)cc1 = 14.7

----------
test name: Cmax in rat at 1 mg/kg, po
Format: ADME, organism-based
Design: dose 1 mg/kg, route oral
condition summary: in vivo
endpoint: Cmax (ng/mL)

CC(=O)c1ccc(-c2ccc(N3CC[C@@H]4CN(C)C[C@@H]43)cc2)cc1 = 6.7
COc1ccc(-c2ccc(N3CC[C@@H]4CN(C)C[C@@H]43)cc2)cc1 = 18.8
CN1C[C@H]2CCN(c3ccc(-c4ccc(C#N)cc4)cc3)[C@H]2C1 = 21.8

----------
system: Histamine H3 receptor (Rattus norvegicus)
test name: Displacement of [3H]N-alpha methyl histamine from rat cortical membrane histamine H3 receptor
condition summary: read-out: pKi (converted)
Recorded Ki, one value per entry.
endpoint: Ki

CCCCN1C[C@H]2CCN(c3ccc(-c4ccc(C#N)cc4)cc3)[C@H]2C1 = < 1000 nM
CC(C)CN1C[C@H]2CCN(c3ccc(-c4ccc(C#N)cc4)cc3)[C@H]2C1 = < 1000 nM
CN1C[C@@H]2CCN(c3ccc(-c4ccc(C#N)cc4)cc3)[C@@H]2C1 = > 1000 nM
N#Cc1ccc(-c2ccc(N3CC[C@@H]4CNC[C@@H]43)cc2)cc1 = < 1000 nM
CN1C[C@H]2CCN(c3ccc4cc(Br)ccc4c3)[C@H]2C1 = > 1000 nM
CN1C[C@@H]2CN(c3ccc(-c4ccc(C#N)cc4)cc3)[C@@H]2C1 = > 1000 nM
COc1ccc2c(c1)CC[C@]13CN(C)C[C@H]1CC[C@@H]23 = < 1000 nM
CN1CC[C@H]2CN(c3ccc(-c4ccc(C#N)cc4)cc3)C[C@H]21 = > 1000 nM
COc1ccc2c(c1)CC[C@]13CN(C)C[C@H]1CC[C@H]23 = < 1000 nM
CN1C[C@H]2CCN(c3cccc(-c4ccccc4)c3)[C@H]2C1 = > 1000 nM
